Values were extracted from ChEMBL document CHEMBL1201862.

# Test system: DLD-1
# Assay Summary: NCI tumour cell line growth inhibition, 48 h
The source made the active and inactive calls. Rule as the data show it: active = GI50 up to about 1.1 µM and inactive = higher.
// GI50 lookup, one value per entry

Example cases with answers are listed next.
>  <Compound>
C/C(=N\NC(=O)CC(=O)Nc1ccc(C)cc1)c1cc2ccccc2oc1=O

>  <Experimental Value>
> 100 µM (inactive)

$$$$
>  <Compound>
COc1cc(C2c3cc4c(cc3[C@@H](Nc3ccc(N(C)C)cc3)[C@H]3COC(=O)C23)OCO4)cc(OC)c1O (stereo not given in full)

>  <Experimental Value>
1.73 µM (inactive)

$$$$
>  <Compound>
C[C@]12CC[C@H](OC3CCCCO3)CC1=CC[C@@H]1C2CC[C@]2(C)/C(=N/O)CCC12 (stereo not given in full)

>  <Experimental Value>
48.2 µM (inactive)

$$$$
>  <Compound>
Cc1nc2nn(Cc3ccccc3)cc2c(=O)o1

>  <Experimental Value>
> 100 µM (inactive)

$$$$

Now consider the entry below.
Query CN1C(=O)CC2(C)c3cc(C=O)ccc3N(C)C12 (stereo not given) yields GI50 of > 100 µM (inactive)
